The reported numbers originate from patent US6875741.

Below, each of the binders is paired with its reported ratio over background value.
- assayed.target: soluble human insulin receptor-immunoglobulin heavy chain chimera (human) (UniProt P06213)
- method.summary: phage ELISA over milk background
A bare number is all that is needed in reply.

Ask: Please give measured ratio over background of the following entry: RCEEKQAEVGPSSDPFYHKMSELLGCR [B6Hα-3-E9-IR]
Result: 1.7

Ask: Please give measured ratio over background of the following entry: RGAVAGFHDQFYDWFDRQVSRVHKFG [H2CA-4-H9-IGFR]
Result: 1.9

Ask: Please give measured ratio over background of the following entry: RGMKEEVLVGGSTDPFYHKLSELLQGS [B6Hα-3-F11-IR]
Result: 1.6

Ask: Please give measured ratio over background of the following entry: YRGMLVLGRISGGAGKAASERPARIGQKVSAVNFYDWFV [A6L-0-H3-IR]
Result: 2

Ask: Please give measured ratio over background of the following entry: QPDHSYFYSLLQELVGSEERL [20E2B-4-F9-IGFR]
Result: 1.9

Ask: Please give measured ratio over background of the following entry: YRGMLVLGRSSDGAGKVAFERPARIGQTVFAVNFYDWFV [A6L-0-E6-IR]
Result: 1.8

Ask: Please give measured ratio over background of the following entry: GGTEVDFYRALERLVRGQLGL [20E2B-3-D8-IGFR]
Result: 1.6

Ask: Please give measured ratio over background of the following entry: GCVVEWQKWHGASDPFYHKLSELGGCS [B6Hα-3-F10-IR]
Result: 1.9

Ask: Please give measured ratio over background of the following entry: MMVVDGFYDALHQLVVAQSLG [20E2A-3-D10-IGFR]
Result: 1.8

Ask: Please give measured ratio over background of the following entry: LRIANLFYQRLWDLAFGGGG [20E2B-3-E8-IGFR]
Result: 1.5

Ask: Please give measured ratio over background of the following entry: SSYGCDGFYLMLFSLGLVASQELEC [20C-3-A1-IGFR]
Result: 1.5

Ask: Please give measured ratio over background of the following entry: LQPCSGFYECIERLIGVKLSG [20E2Bβ-4-G7-IR]
Result: 1.6

Ask: Please give measured ratio over background of the following entry: IIGGFYSYFNSVLRLGT [NNRPγ-4-A1-IR]
Result: 1.8

Ask: Please give measured ratio over background of the following entry: QPAPDGFYSALMKLIGRGGVS [20E2B-3-C8-IGFR]
Result: 1.8

Ask: Please give measured ratio over background of the following entry: GGTKAVAKVGTRDDPFYHKLSELLQGS [B6Hα-4-G8-IR]
Result: 1.7
